tgt: UniProt P08246
Sequence (P08246 30-267): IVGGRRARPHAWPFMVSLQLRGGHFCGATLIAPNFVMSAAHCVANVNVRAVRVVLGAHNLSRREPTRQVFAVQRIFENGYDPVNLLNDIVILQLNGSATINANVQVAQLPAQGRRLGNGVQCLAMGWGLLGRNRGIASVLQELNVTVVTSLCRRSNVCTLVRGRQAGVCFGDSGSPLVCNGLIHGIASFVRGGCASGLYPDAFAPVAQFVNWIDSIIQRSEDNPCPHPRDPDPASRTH
measurement description: Neutrophil elastase (rhELA2) fluorescence inhibition assay
condition description: rhELA2 activated with DPPI; 30 min preincubation, 1 hr with substrate, fluorescence 360 nm/450 nm
property measured: IC50 (nM)
Form entry: value (nM) — number only.

So for COc1ccc(NS(=O)(=O)c2ccc(OC(=O)C(C)(C)C)cc2)c(C(=O)NCC(=O)O)c1 [Compound 17] , the logged IC50 turned out to be 15.3

Input Cn1cc(-c2ccc(NS(=O)(=O)c3ccc(OC(=O)C(C)(C)C)cc3)c(C(=O)NCC(=O)O)c2)cn1 [Compound 2] . Output IC50: 30.5

Looking up COC[C@@H](NC(=O)c1ccccc1NS(=O)(=O)c1ccc(OC(=O)C(C)(C)C)cc1)C(=O)O [Compound 20] , I see its IC50 listed as 2.47

IC50 reported for this molecule C[C@@H](NC(=O)c1cc(C#N)ccc1NS(=O)(=O)c1ccc(OC(=O)C(C)(C)C)cc1)C(=O)O [Compound 22] : 2.2

IC50 reported for this molecule CC(C)(C)C(=O)Oc1ccc(S(=O)(=O)Nc2ccccc2C(=O)NCCS(=O)(=O)O)cc1 [Compound 13] : 4.22

C[C@@H](NC(=O)c1cc(F)ccc1NS(=O)(=O)c1ccc(OC(=O)C(C)(C)C)cc1)C(=O)O [Compound 21] yielded IC50 of 2.26

CC(C)(C)C(=O)Oc1ccc(S(=O)(=O)Nc2ccc(-n3ccnc3)cc2C(=O)NCC(=O)O)cc1 [Compound 3] has a reported IC50 of 23.6

The molecule listed as COC[C@@H](NC(=O)c1cc(C#N)ccc1NS(=O)(=O)c1ccc(OC(=O)C(C)(C)C)cc1)C(=O)O [Compound 24] has a reported IC50 of 1.5

IC50 for COC[C@H](NC(=O)c1ccccc1NS(=O)(=O)c1ccc(OC(=O)C(C)(C)C)cc1)C(=O)O [Compound 26] is 8.49

For this molecule ( CC(C)(C)C(=O)Oc1ccc(S(=O)(=O)Nc2ccccc2C(=O)N[C@H](CF)C(=O)O)cc1 [Compound 19] ), measured IC50 is 2.25

====

Task for the reader: assign each of the following compounds its reported IC50.
tgt: rhELA2 (Homo sapiens, UniProt P08246)
Sequence (P08246 30-267): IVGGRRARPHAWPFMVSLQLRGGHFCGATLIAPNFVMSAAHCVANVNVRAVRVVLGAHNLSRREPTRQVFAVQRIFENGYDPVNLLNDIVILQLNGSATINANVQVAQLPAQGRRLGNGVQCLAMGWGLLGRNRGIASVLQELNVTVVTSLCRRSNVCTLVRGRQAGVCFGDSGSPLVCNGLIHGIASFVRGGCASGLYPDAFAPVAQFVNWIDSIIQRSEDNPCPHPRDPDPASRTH
measurement description: Neutrophil elastase (rhELA2) fluorescence inhibition assay
condition description: rhELA2 activated with DPPI; 30 min preincubation, 1 hr with substrate, fluorescence 360 nm/450 nm
Use nM as the unit, but write only the number.

According to the records, this compound Cn1nccc1-c1ccc(NS(=O)(=O)c2ccc(OC(=O)C(C)(C)C)cc2)c(C(=O)NCC(=O)O)c1 displays IC50 of 20.4

Per the records, this compound ( CC(C)(C)C(=O)Oc1ccc(S(=O)(=O)N[C@@H]2CCC(F)(F)C[C@@H]2C(=O)NCC(=O)O)cc1 ) has IC50 equal to 32.8

// IC50 value for C[C@@H](NC(=O)c1ccccc1NS(=O)(=O)c1ccc(OC(=O)C(C)(C)C)c(F)c1)C(=O)O : 3.69

Entry CC(C)(C)C(=O)Oc1ccc(S(=O)(=O)Nc2ccc(-c3cnoc3)cc2C(=O)NCC(=O)O)cc1 — recorded IC50 = 27

Entry under test: [2H]C([2H])([2H])OC[C@@H](NC(=O)c1ccccc1NS(=O)(=O)c1ccc(OC(=O)C(C)(C)C)cc1)C(=O)O . Its IC50 was 2.54

IC50 recorded for this compound, CC(C)(C)C(=O)Oc1ccc(S(=O)(=O)Nc2ccccc2C(=O)NCP(=O)(O)O)cc1 , is 5.69

Value of IC50 reported for the compound CSCC(NC(=O)c1ccccc1NS(=O)(=O)c1ccc(OC(=O)C(C)(C)C)cc1)C(=O)O (stereo not shown) is 130

The reported numbers originate from patent US20260200845A1.
